tested on: KM12 colon; test: NCI tumour cell line growth inhibition, 48 h
In this section, each of the molecules is paired with its reported TGI.

Look over these answered cases.
COC(=O)[C@@](NC(=O)OCc1ccccc1)([C@H](C)O)C(F)(F)F | > 100 µM
Cc1ccc2ccc(-c3ccccc3)c3c2c1C(=O)c1ccccc1C3=O | > 100 µM
CC(C)(C)OC(=O)N1CCCC1C(=O)NC(c1ccccc1)c1ccccc1 (stereo not drawn) | > 100 µM
COc1ccccc1NC(=O)C1=C(C)NC(C)=C(C(=O)Nc2ccccc2OC)C1c1ccco1 | > 38.4 µM
O=C(O)c1cc2ccccc2c(N=Nc2ccc(S(=O)(=O)Nc3ncccn3)cc2)c1O | > 100 µM
COc1cc(OC)c2c(=O)c3cccc([N+](=O)[O-])c3n(C)c2c1 | > 100 µM

Query: Fill in the blank: the reported TGI of CCOC(=O)[C@@H]1CSC(CC)=C(C(=O)O)N1 is ____.
Result: > 100 µM

Query: Fill in the blank: the reported TGI of CN(C)c1ccc(-c2ccc(-c3ccc(C(=N)N)cn3)o2)cc1 is ____.
Result: 3.01 µM

Query: Fill in the blank: the reported TGI of CC(=O)Nc1cccc(N2C(=O)/C(=C\c3cccc(Oc4ccccc4)c3)SC2c2ccccc2)c1 (stereo not drawn) is ____.
Result: > 100 µM

Query: Fill in the blank: the reported TGI of CCCCCC[C@H]1C(=O)O[C@H](C)[C@H](NC(=O)c2cccc(NC=O)c2OC)C(=O)O[C@@H](C)[C@@H]1OC(=O)CCC (tested in a mixture with another compound) is ____.
Result: 31.4 µM

Query: Fill in the blank: the reported TGI of COc1cccc(/C=N\NC(=O)C(C)SC(C)C(=O)N/N=C/c2cccc(OC)c2)c1 (stereo not drawn) is ____.
Result: > 67.3 µM

Query: Fill in the blank: the reported TGI of OCCN(CO)CO is ____.
Result: > 100 µM

Query: Fill in the blank: the reported TGI of NC(=O)[N+](=CC(=S)Nc1ccccc1Cl)C(N)=O is ____.
Result: > 100 µM

###

tested on: NCI-H226 lung; assay: NCI tumour cell line growth inhibition, 48 h
property: TGI

Look over these answered cases.
Cc1cc(O)c(/C=N/C(=S)Nc2ccc(S(N)(=O)=O)cc2)c(=O)o1 | > 100 µM
CC(C)(O)c1cc2c(cc1C(C)(C)O)-c1ccccc1-2 | > 100 µM
COc1ccc(-c2nc(Nc3ccccc3)sc2Cc2sc(Nc3ccccc3)nc2-c2ccc(OC)cc2)cc1 | > 100 µM

Query: Provide the documented TGI with NCI-H226 lung as the system for COc1ccc(N2C(=O)C(=O)C3(CCCCC3)C2=O)c2ccccc12
Result: > 10 µM

Query: Provide the documented TGI with NCI-H226 lung as the system for COc1cc(N(C)C)c(OC)cc1C=C1C=CC=C1
Result: > 100 µM

###

tested on: SF-268 CNS; assay: NCI tumour cell line growth inhibition, 48 h
property: TGI

Look over these answered cases.
Nc1ncc2ncn(C3CCC(CO)O3)c2n1 (stereo not drawn) | > 100 µM
O=[N+]([O-])c1ccc(-c2nn3c(C45CC6CC(CC(C6)C4)C5)nnc3s2)c(Cl)c1 | > 100 µM

Query: Fill in the blank: the reported TGI of COc1ccc(-c2c(N)noc2-c2cc(OC)c3c(c2)OCCO3)cc1 is ____.
Result: > 100 µM

###

tested on: M19-MEL melanoma; experiment: NCI tumour cell line growth inhibition, 48 h
property: TGI

Look over these answered cases.
Cc1ccc(C(=O)Oc2ccccc2)cc1N=NN(C)C | > 100 µM
CCCNCCCCC(NC(C)=O)C(=O)NCc1ccccc1 (stereo not given) | > 100 µM
COc1ccc(/C=N/NS(=O)(=O)c2ccccc2)cc1 | > 100 µM
CCCCC1(C(NC(=O)c2ccccc2Cl)c2ccncc2)C(=O)N(c2ccccc2)N(c2ccccc2)C1=O (stereo not given) | > 100 µM

Query: Provide the documented TGI with M19-MEL melanoma as the system for CN(C)CCN1CCc2c([nH]c3ccccc23)C1c1cccnc1 (stereo not given)
Result: > 100 µM

###

system: HOP-92 NSCLC; test: NCI tumour cell line growth inhibition, 48 h
In this section, each of the molecules is paired with its reported TGI.

Look over these answered cases.
OCCN(CO)CO | > 100 µM
CCOC(=O)c1nc2ccc(C(F)(F)F)cc2nc1Nc1ccc(OC)cc1 | 49.2 µM
O=[N+]([O-])/C(Cl)=C(/C(Cl)=C(Cl)Cl)N1CCOCC1 | 4.88 µM
N#CCc1cccc(CC#N)c1Br | > 100 µM
CCc1ccc2c(c1)N(CCO)C1=C(C(=O)OC1)C2c1cc(OC)c(OC)c(OC)c1 (configuration not stated) | > 50 µM

Query: Fill in the blank: the reported TGI of CCOc1ccc(NC(=O)C(=O)Nn2c(N)nnc2N)cc1 is ____.
Result: > 100 µM

Query: Fill in the blank: the reported TGI of CC(C)(O)c1cc2c(cc1C(C)(C)O)-c1ccccc1-2 is ____.
Result: > 100 µM

Query: Fill in the blank: the reported TGI of O=C1Cc2cn[nH]c2-c2ccccc2N1 is ____.
Result: > 30.7 µM

Query: Fill in the blank: the reported TGI of CCCc1cc(OC(=O)c2c(O)cc(OC)cc2CCC)cc(O)c1C(=O)O is ____.
Result: 39 µM

Query: Fill in the blank: the reported TGI of Cc1c(-c2ccccc2)[nH]c2cn[nH]c(=O)c12 is ____.
Result: > 100 µM

Query: Fill in the blank: the reported TGI of COc1cc(-c2nn(-c3cccc(NC(=O)CCN4CCN(c5ccccc5)CC4)c3)cc2-c2ccncc2)ccc1Cl is ____.
Result: 19.5 µM

Query: Fill in the blank: the reported TGI of O=C(NCCN1CCCCC1)c1cccc(I)c1 is ____.
Result: > 100 µM

###

system: SN12C renal; assay: NCI tumour cell line growth inhibition, 48 h
property: TGI (µM)
State the answer as a number, implicitly in µM.

COC(=O)c1c(O)ccc2c1c1c(n2Cc2cc(OC)cc(OC)c2)C(=O)c2ccccc2C1=O | 24.2

Query: Fill in the blank: the reported TGI of COc1cc2cc(Oc3cccc(NC(=O)Nc4cc(C(F)(F)F)cc(C(F)(F)F)c4)c3)c(C)nc2cc1OC is ____.
Result: 2.09

###

system: SK-MEL-2 melanoma; experiment: NCI tumour cell line growth inhibition, 48 h
In this section, each of the molecules is paired with its reported GI50.

Look over these answered cases.
COc1ccc(-c2csc(Nc3cccc(-c4csc(C)n4)c3)n2)cc1 | 4.7 µM
CC(O)[C@H](NC(=O)N[C@@H](CC(N)=O)c1nc(N2CCNCC2)no1)C(=O)O (stereo partly drawn) | > 100 µM

// switching to the query molecule
Query: Fill in the blank: the reported GI50 of COc1cc2c3cc1Oc1c(OC)c(OC)cc4c1C(Cc1ccc(O)c(c1)Oc1ccc(cc1)CC3N(C)CC2)N(C)CC4 (stereo not drawn) is ____.
Result: 20.2 µM

###

In this section, each of the molecules is paired with its reported TGI.
test system: SR leukemia; assay: NCI tumour cell line growth inhibition, 48 h

Look over these answered cases.
CC(=O)Oc1cc2cnc3c4cc(OC(C)=O)c(OC(C)=O)cc4ccc3c2cc1OC(C)=O | > 100 µM
COc1cc(OC)c2c(=O)c3cccc(C)c3n(C)c2c1 | > 100 µM

// switching to the query molecule
Query: Fill in the blank: the reported TGI of Cc1cn(C2CC(N=[N+]=[N-])C(COP(=O)(O)OCC3OC(n4cc(F)c(=O)[nH]c4=O)CC3O)O2)c(=O)[nH]c1=O (stereo not drawn) is ____.
Result: > 100 µM

###

In this section, each of the compounds is paired with its reported TGI.
tested on: RXF 393 renal; experiment: NCI tumour cell line growth inhibition, 48 h

Look over these answered cases.
COc1ccc(-c2csc(Nc3cccc(-c4csc(C)n4)c3)n2)cc1 | > 14.9 µM
CN1CC[C@H](c2c(O)cc(O)c3c(=O)cc(-c4ccccc4Cl)oc23)[C@H](O)C1 | 0.0671 µM
COc1ccc(-c2nc(Nc3ccccc3)sc2Cc2sc(Nc3ccccc3)nc2-c2ccc(OC)cc2)cc1 | 26.8 µM
COc1ccc(C)cc1NC(=S)C#N | > 100 µM
Cc1ccc(S(=O)(=O)N2CCSCCSCCSCCN(S(=O)(=O)c3ccc(C)cc3)CC2)cc1 | > 100 µM

// switching to the query compound
Query: Fill in the blank: the reported TGI of COC(=O)c1c(O)ccc2c1c1cc3ccccc3c(O)c1n2CCc1ccc(OC)c(OC)c1 is ____.
Result: > 100 µM
